The measured values listed here are drawn from patent US20180237441A1.

# targetEntity: PERK (Homo sapiens, UniProt Q9NZJ5)
# Sequence (Q9NZJ5 30-1116): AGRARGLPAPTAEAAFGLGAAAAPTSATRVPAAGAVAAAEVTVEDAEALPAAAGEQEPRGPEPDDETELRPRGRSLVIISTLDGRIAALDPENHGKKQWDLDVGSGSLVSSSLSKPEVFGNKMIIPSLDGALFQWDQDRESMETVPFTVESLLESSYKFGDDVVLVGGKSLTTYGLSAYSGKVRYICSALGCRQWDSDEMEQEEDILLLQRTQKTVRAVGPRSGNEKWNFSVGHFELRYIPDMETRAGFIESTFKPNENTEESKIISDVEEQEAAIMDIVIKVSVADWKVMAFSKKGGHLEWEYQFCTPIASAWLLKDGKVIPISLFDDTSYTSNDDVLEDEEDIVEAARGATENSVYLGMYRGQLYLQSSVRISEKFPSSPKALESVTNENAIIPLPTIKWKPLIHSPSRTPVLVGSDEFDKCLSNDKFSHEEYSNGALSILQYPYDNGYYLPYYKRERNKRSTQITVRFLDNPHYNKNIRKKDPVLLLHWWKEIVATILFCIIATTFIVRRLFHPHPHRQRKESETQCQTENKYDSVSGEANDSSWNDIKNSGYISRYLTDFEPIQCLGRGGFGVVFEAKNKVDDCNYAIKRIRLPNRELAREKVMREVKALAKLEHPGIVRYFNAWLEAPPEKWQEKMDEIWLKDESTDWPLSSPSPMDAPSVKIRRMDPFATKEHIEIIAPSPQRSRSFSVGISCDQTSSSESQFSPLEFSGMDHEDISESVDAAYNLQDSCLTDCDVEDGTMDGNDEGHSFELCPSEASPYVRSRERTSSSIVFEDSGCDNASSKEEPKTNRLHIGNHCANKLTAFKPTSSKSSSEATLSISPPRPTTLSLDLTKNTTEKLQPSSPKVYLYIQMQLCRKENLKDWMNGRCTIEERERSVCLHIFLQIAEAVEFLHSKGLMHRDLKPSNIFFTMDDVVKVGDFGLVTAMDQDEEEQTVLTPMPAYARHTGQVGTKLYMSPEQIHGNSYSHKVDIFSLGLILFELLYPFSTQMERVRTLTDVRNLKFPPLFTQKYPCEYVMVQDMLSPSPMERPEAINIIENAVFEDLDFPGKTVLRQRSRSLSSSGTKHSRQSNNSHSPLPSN
# assayComment: PERK enzyme assay (HTRF)
# Type: biochemical
# measurementSetup: PERK Enzyme (500 μM ATP) IC50; at least one experimental run; read-out: PERK Activity
pIC50: −log10 of the molar value.
recordedEndpoint: pIC50

Below, 2 molecules whose answers are already recorded.
{"molecule": "CN1C(=O)N(c2ccc(-c3cn(C4CC4)c4ncnc(N)c34)c(Cl)c2)CC1c1cc(F)cc(F)c1 (single isomer, unassigned) [Example 129]", "pIC50": "> 7.00"}
{"molecule": "CN1C(=O)N(c2ccc(-c3cn(C4CC4)c4ncnc(N)c34)c(F)c2)CC1c1cccc(F)c1 (single isomer, unassigned) [Example 125]", "pIC50": "> 7.00"}

# input for lookup
Exercise: // output pIC50; input Cc1nc(N)c2c(-c3ccc(N4CC(c5ccc(F)cc5F)N(C)C4=O)cc3F)nn(C)c2n1 (single isomer, unassigned) [Example 13] ; system PERK (Homo sapiens, UniProt Q9NZJ5)
Key: < 6.00

====

Reported values of pIC50 for individual entries
# targetEntity: PERK (Homo sapiens, UniProt Q9NZJ5)
# Sequence (Q9NZJ5 30-1116): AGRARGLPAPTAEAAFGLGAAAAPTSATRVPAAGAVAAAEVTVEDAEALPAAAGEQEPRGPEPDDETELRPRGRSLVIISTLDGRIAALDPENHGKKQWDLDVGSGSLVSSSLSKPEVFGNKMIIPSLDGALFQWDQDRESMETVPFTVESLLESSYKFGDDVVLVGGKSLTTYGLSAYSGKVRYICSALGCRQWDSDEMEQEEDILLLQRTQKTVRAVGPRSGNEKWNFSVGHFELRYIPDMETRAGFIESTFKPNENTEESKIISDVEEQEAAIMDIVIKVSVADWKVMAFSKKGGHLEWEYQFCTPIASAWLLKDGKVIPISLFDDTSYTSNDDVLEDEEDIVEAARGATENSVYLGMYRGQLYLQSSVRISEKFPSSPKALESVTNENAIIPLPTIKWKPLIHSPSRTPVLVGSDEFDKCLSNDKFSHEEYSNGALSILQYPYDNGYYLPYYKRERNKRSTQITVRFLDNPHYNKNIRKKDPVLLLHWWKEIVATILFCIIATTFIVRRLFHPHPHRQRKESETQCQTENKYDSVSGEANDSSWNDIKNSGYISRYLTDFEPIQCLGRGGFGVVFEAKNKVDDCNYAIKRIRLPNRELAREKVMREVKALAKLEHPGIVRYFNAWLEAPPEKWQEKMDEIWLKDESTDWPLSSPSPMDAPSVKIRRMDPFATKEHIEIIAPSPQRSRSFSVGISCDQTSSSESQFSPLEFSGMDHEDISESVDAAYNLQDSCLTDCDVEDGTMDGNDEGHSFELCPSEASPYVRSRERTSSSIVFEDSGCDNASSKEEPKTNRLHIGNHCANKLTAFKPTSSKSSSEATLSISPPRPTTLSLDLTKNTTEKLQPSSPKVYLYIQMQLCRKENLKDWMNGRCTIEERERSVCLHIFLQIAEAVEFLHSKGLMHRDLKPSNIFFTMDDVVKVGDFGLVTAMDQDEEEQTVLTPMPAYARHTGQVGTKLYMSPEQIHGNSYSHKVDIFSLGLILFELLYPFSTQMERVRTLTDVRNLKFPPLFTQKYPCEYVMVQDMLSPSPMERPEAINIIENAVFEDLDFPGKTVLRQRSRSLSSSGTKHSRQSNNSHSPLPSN
# assayComment: PERK enzyme assay (HTRF)
# Assay type: biochemical
# measurementSetup: PERK Enzyme (500 μM ATP) IC50; at least one experimental run; read-out: PERK Activity
pIC50: −log10 of the molar value.

These recorded examples may help you get a feel for the data.
{"compound": "CN1C(=O)N(c2ccc(-c3cn(C)c4ncnc(N)c34)c(F)c2)CC1c1cc(F)c(F)cc1F (single isomer, unassigned) [Example 158]", "pIC50": "> 7.00"}
{"compound": "CN1C(=O)N(c2ccc(-c3cn(C4CC4)c4ncnc(N)c34)c(F)c2)CC1c1ccc(F)c(F)c1 (stereo not drawn) [Example 114]", "pIC50": "> 7.00"}

Here is another compound to look at.
Exercise: Check the records and state pIC50 for CCN1C(=O)N(c2ccc(-c3cn(C)c4ncnc(N)c34)c(F)c2)CC1c1ccc(F)c(F)c1 (stereo not drawn) [Example 97]
Key: > 7.00

====

# targetEntity: PERK (Homo sapiens, UniProt Q9NZJ5)
# Sequence (Q9NZJ5 30-1116): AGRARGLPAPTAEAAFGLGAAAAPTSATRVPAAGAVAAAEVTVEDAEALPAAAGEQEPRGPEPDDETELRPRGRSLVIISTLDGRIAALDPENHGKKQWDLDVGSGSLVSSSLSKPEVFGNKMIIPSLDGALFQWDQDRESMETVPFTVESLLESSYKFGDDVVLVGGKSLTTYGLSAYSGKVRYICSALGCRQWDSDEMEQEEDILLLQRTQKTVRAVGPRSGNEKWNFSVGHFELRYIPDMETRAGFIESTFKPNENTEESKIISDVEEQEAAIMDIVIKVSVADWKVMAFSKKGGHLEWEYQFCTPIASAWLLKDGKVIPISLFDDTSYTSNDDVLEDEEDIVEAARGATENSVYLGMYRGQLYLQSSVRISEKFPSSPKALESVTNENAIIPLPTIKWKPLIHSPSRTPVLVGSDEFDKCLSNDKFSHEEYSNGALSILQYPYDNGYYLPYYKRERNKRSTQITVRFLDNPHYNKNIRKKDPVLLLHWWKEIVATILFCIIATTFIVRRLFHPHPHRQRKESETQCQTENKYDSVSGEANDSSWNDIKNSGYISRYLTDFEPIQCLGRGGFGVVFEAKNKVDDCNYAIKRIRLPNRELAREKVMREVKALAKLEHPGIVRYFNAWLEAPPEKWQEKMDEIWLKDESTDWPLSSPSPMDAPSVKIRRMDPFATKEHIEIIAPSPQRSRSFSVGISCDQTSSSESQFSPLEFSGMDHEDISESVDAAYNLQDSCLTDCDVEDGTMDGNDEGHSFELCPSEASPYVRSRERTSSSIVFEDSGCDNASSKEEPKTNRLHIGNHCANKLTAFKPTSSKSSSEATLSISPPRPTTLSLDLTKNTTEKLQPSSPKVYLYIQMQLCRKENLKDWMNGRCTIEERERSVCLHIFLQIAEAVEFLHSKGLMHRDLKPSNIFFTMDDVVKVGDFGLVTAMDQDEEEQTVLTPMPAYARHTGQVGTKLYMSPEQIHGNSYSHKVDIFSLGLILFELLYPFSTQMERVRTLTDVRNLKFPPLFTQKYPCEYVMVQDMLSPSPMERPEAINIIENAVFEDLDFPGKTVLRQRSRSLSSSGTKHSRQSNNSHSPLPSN
# assayComment: PERK enzyme assay (HTRF)
# Assay type: biochemical
# measurementSetup: 500 μM ATP; at least one experimental run; read-out: PERK Enzyme (500 μM ATP) IC50
pIC50: −log10 of the molar value.
recordedEndpoint: pIC50

(1) CCN1C(=O)N(c2ccc(-c3cn(C)c4ncnc(N)c34)c(F)c2)CC1c1cc(F)cc(C(F)(F)F)c1 (single isomer, unassigned)
(2) CN1C(=O)N(c2ccc(-c3cn(C)c4ncnc(N)c34)c(Cl)c2)CC1c1cc(F)cc(F)c1 (single isomer, unassigned)
Exercise: Dear colleague, could you let me know whether 1 or 2 has the lower recorded pIC50? Thanks. Select an item and report its label.
Key: 1
